Values from ChEMBL document CHEMBL1158335

tested on: Escherichia coli; assay: Antibacterial activity against Escherichia coli ATCC 25922 after 24 hrs; assay type: functional; details: ATCC 25922, 24 h
quantityKind: MIC (µg/mL)
Reply numerically in µg/mL, unit not repeated.

| compound | readoutUnit | MIC |
| --- | --- | --- |
| Cc1nc2ccccc2n1Cc1nnc(/N=C/c2ccccc2)s1 | µg/mL | 200 |

Looking up COc1ccc(/C=N/c2nnc(Cn3c(C)nc4ccccc43)s2)cc1 , I found its MIC recorded as 200

Looking up Cc1nc2ccccc2n1Cc1nnc(/N=C/c2ccc(N)cc2)s1 , I found its MIC recorded as 200

Looking up CC1(C)S[C@@H]2[C@H](NC(=O)[C@H](N)c3ccccc3)C(=O)N2[C@H]1C(=O)O , I found its MIC recorded as 10

Looking up Cc1nc2ccccc2n1Cc1nnc(N2C(=O)C(Cl)C2c2ccc(O)cc2)s1 (stereo not drawn) , I found its MIC recorded as 500

Looking up Cc1ccccc1C1C(Cl)C(=O)N1c1nnc(Cn2c(C)nc3ccccc32)s1 (stereo not drawn) , I found its MIC recorded as 100

Looking up Cc1nc2ccccc2n1Cc1nnc(N2C(=O)C(Cl)C2c2ccccc2O)s1 (stereo not drawn) , I found its MIC recorded as 200

Looking up Cc1nc2ccccc2n1Cc1nnc(N2C(=O)C(Cl)C2c2ccccc2)s1 (stereo not drawn) , I found its MIC recorded as 500

Looking up Cc1nc2ccccc2n1Cc1nnc(/N=C/c2ccccc2Cl)s1 , I found its MIC recorded as 100

Looking up Cc1nc2ccccc2n1Cc1nnc(N2C(=O)C(Cl)C2c2ccccc2Cl)s1 (stereo not drawn) , I found its MIC recorded as 100

Looking up Cc1nc2ccccc2n1Cc1nnc(/N=C/c2ccc(Br)cc2)s1 , I found its MIC recorded as 500

Looking up Cc1ccc(C2C(Cl)C(=O)N2c2nnc(Cn3c(C)nc4ccccc43)s2)cc1 (stereo not drawn) , I found its MIC recorded as 500

Looking up COc1ccc(C2C(Cl)C(=O)N2c2nnc(Cn3c(C)nc4ccccc43)s2)cc1 (stereo not drawn) , I found its MIC recorded as 200

Looking up Cc1ccccc1/C=N/c1nnc(Cn2c(C)nc3ccccc32)s1 , I found its MIC recorded as 100

Looking up Cc1nc2ccccc2n1Cc1nnc(/N=C/c2ccc(O)cc2)s1 , I found its MIC recorded as 200

Looking up Cc1nc2ccccc2n1Cc1nnc(/N=C/c2ccccc2O)s1 , I found its MIC recorded as 200

Looking up Cc1nc2ccccc2n1Cc1nnc(N2C(=O)C(Cl)C2c2ccc(N)cc2)s1 (stereo not drawn) , I found its MIC recorded as 200

Looking up Cc1nc2ccccc2n1Cc1nnc(N2C(=O)C(Cl)C2c2cccc(O)c2)s1 (stereo not drawn) , I found its MIC recorded as 500
